# Test Name: Cytotoxicity against Homo sapiens (human) NSCLC cells assessed as cell growth at 10^-5 M after 48 hr by SRB assay relative to control
# Assay type: functional
# Setup Conditions: read-out: Activity
For each of the compounds below, state its growth at 10 µM.
Field: numeric (%). Do not append units.

Sample "COc1ccc(NC(=O)Nc2nc3ccc(OC(F)(F)F)cc3s2)cc1" — what was its growth at 10 µM? 95.8

Sample "N#Cc1ccc(NC(=O)Nc2nc3ccc(OC(F)(F)F)cc3s2)cc1" — what was its growth at 10 µM? -6.18

Sample "COc1ccc2nc(NC(=O)Nc3c(F)cccc3F)sc2c1" — what was its growth at 10 µM? 99.2

Sample "O=C(Nc1ccc(F)cc1)Nc1nc2ccc(OC(F)(F)F)cc2s1" — what was its growth at 10 µM? 5.63

Sample "O=C(Nc1nc2ccc(OC(F)(F)F)cc2s1)Nc1c(F)cccc1F" — what was its growth at 10 µM? 77.6

###

For each of the molecules below, state its growth at 10 µM.
# Test Name: Cytotoxicity against Homo sapiens (human) renal cancer cells assessed as cell growth at 10^-5 M after 48 hr by SRB assay relative to control
# Assay type: functional
# Setup Conditions: Cancer cell lines, read-out: Activity
Field: numeric (%). Do not append units.

Sample "N#Cc1ccc(NC(=O)Nc2nc3ccc(OC(F)(F)F)cc3s2)cc1" — what was its growth at 10 µM? -7.46

Sample "O=C(Nc1ccc(F)cc1)Nc1nc2ccc(OC(F)(F)F)cc2s1" — what was its growth at 10 µM? 15.8

Sample "COc1ccc2nc(NC(=O)Nc3c(F)cccc3F)sc2c1" — what was its growth at 10 µM? 97.9

Sample "COc1ccc(NC(=O)Nc2nc3ccc(OC(F)(F)F)cc3s2)cc1" — what was its growth at 10 µM? 99.4

Sample "O=C(Nc1nc2ccc(OC(F)(F)F)cc2s1)Nc1c(F)cccc1F" — what was its growth at 10 µM? 89.4

###

# Test Name: Cytotoxicity against Homo sapiens (human) melanoma cells assessed as cell growth at 10^-5 M after 48 hr by SRB assay relative to control
# Format: functional
# Setup Conditions: read-out: Activity
For each of the compounds below, state its growth at 10 µM.
Field: numeric (%). Do not append units.

Sample "O=C(Nc1ccc(F)cc1)Nc1nc2ccc(OC(F)(F)F)cc2s1" — what was its growth at 10 µM? 12

Sample "N#Cc1ccc(NC(=O)Nc2nc3ccc(OC(F)(F)F)cc3s2)cc1" — what was its growth at 10 µM? -9.77

Sample "O=C(Nc1nc2ccc(OC(F)(F)F)cc2s1)Nc1c(F)cccc1F" — what was its growth at 10 µM? 89.6

Sample "COc1ccc2nc(NC(=O)Nc3c(F)cccc3F)sc2c1" — what was its growth at 10 µM? 102

Sample "COc1ccc(NC(=O)Nc2nc3ccc(OC(F)(F)F)cc3s2)cc1" — what was its growth at 10 µM? 104

###

# Test Name: Cytotoxicity against Homo sapiens (human) ovarian cancer cells assessed as cell growth at 10^-5 M after 48 hr by SRB assay relative to control
# Format: functional
# Setup Conditions: Cancer cell lines, read-out: Activity
Assay Metric: growth at 10 µM
Answer with the value and then the unit.

Sample "COc1ccc(NC(=O)Nc2nc3ccc(OC(F)(F)F)cc3s2)cc1" — what was its growth at 10 µM? 97.5%

Sample "O=C(Nc1nc2ccc(OC(F)(F)F)cc2s1)Nc1c(F)cccc1F" — what was its growth at 10 µM? 90.2%

Sample "O=C(Nc1ccc(F)cc1)Nc1nc2ccc(OC(F)(F)F)cc2s1" — what was its growth at 10 µM? 12.9%

Sample "COc1ccc2nc(NC(=O)Nc3c(F)cccc3F)sc2c1" — what was its growth at 10 µM? 108%

Sample "N#Cc1ccc(NC(=O)Nc2nc3ccc(OC(F)(F)F)cc3s2)cc1" — what was its growth at 10 µM? 8.95%

###

# Test Name: Cytotoxicity against Homo sapiens (human) CNSC cells assessed as cell growth at 10^-5 M after 48 hr by SRB assay relative to control
# Type: functional
# Setup Conditions: read-out: Activity
Assay Metric: growth at 10 µM (%)
Field: numeric (%). Do not append units.

Sample "N#Cc1ccc(NC(=O)Nc2nc3ccc(OC(F)(F)F)cc3s2)cc1" — what was its growth at 10 µM? 2.6

Sample "O=C(Nc1ccc(F)cc1)Nc1nc2ccc(OC(F)(F)F)cc2s1" — what was its growth at 10 µM? 21.1

Sample "O=C(Nc1nc2ccc(OC(F)(F)F)cc2s1)Nc1c(F)cccc1F" — what was its growth at 10 µM? 96

Sample "COc1ccc2nc(NC(=O)Nc3c(F)cccc3F)sc2c1" — what was its growth at 10 µM? 104

Sample "COc1ccc(NC(=O)Nc2nc3ccc(OC(F)(F)F)cc3s2)cc1" — what was its growth at 10 µM? 103
